compounds and their reported damage to plant, Amaranthus retroflexus (AMARE)
test system: Amaranthus retroflexus (AMARE); assay: Example B1 herbicidal action, post-emergence, 96-cell seed trays, climatic chamber; format: in vivo; settings: Application post-emergence, 1000 mg/l spray equivalent to 1000 g/ha, evaluated after 9 days
quantity name: damage to plant, Amaranthus retroflexus (AMARE)

• CCn1c(=O)c(-c2cccc(Cl)c2Cl)c(OC(=O)C(C)C)c2nccnc21 = 8
• C=CCCCCCCCCC(=O)Oc1c(-c2c(F)ccc(F)c2Cl)c(=O)n(C)c2nccnc12 = 7
• CC(C)C(=O)Oc1c(-c2c(F)ccc(F)c2F)c(=O)n(C)c2nccnc12 = 6
• CC(C)C(=O)Oc1c(-c2c(Cl)ccc(Cl)c2Cl)c(=O)n(C)c2nccnc12 = 6
• O=c1[nH]c2nccnc2c(O)c1-c1ccccc1F = 0
• Cn1c(=O)c(-c2c(F)ccc(F)c2Cl)c(OC(=O)C(C)(C)C)c2nccnc21 = 5
• Cc1noc(C)c1C(=O)Oc1c(-c2c(F)ccc(F)c2Cl)c(=O)n(C)c2nccnc12 = 6
• O=c1[nH]c2nccnc2c(O)c1-c1cc(Cl)ccc1C(F)(F)F = 6

* * *

system: Digitaria sanguinalis (DIGSA); experiment: Example B3 herbicidal action, post-emergence; assay type: in vivo; details: 1000 g/ha, after 13 days, 100=total damage to plant, 0=no damage to plant
quantity name: damage to plant, Digitaria sanguinalis (DIGSA)

* Cc1cccc([N+](=O)[O-])c1-c1c(OC(=O)C(C)(C)C)c2nccnc2n(C)c1=O | 5
* Cn1c(=O)c(-c2c(F)c([N+](=O)[O-])cc(F)c2Cl)c(OC(=O)C(C)(C)C)c2nccnc21 | 0
* CC(C)(C)C(=O)Oc1c(-c2ccc(C(F)(F)F)cc2Br)c(=O)[nH]c2nccnc12 | 0
* CCn1c(=O)c(-c2c(F)c([N+](=O)[O-])cc(F)c2Cl)c(OC(=O)C(C)(C)C)c2nccnc21 | 0
* CCn1c(=O)c(-c2cc(-c3ccc(Cl)cc3)ccc2C)c(OC(=O)C(C)C)c2nccnc21 | 3
* CC(=O)Oc1c(-c2ccc(Cl)cc2Cl)c(=O)n(C(C)C)c2nccnc12 | 3
* CCn1c(=O)c(-c2ccc(C(F)(F)F)cc2[N+](=O)[O-])c(OC(=O)C(C)(C)C)c2nccnc21 | 0

* * *

compounds and their reported damage to plant, Amaranthus retroflexus (AMARE)
tested on: Amaranthus retroflexus (AMARE); assay: Example B1 herbicidal action, post-emergence, 96-cell seed trays, climatic chamber; type: in vivo; details: Application post-emergence, 1000 mg/l spray equivalent to 1000 g/ha, evaluated after 9 days
quantity name: damage to plant, Amaranthus retroflexus (AMARE)

- Cn1c(=O)c(-c2c(F)ccc(F)c2Cl)c(OC(=O)CC(C)(C)C)c2nccnc21 [Compound C53]: 7
- Cc1cc(C)c(-c2c(OC(=O)C(C)C)c3nccnc3n(C)c2=O)c(C)c1 [Compound C75]: 3
- C=CCCn1c(=O)c(-c2ccccc2OC(F)(F)F)c(OC(C)=O)c2nccnc21 [Compound C22]: 1
- CC#CCOC(=O)Oc1c(-c2c(F)ccc(F)c2Cl)c(=O)n(C)c2nccnc12 [Compound C73]: 4

* * *

system: Nasturtium officinale (NAAOF); assay: Example B1 herbicidal action, post-emergence, 96-cell seed trays, climatic chamber; format: in vivo; parameters: scale not given here; details: Application post-emergence, 1000 mg/l spray equivalent to 1000 g/ha, evaluated after 9 days (100=total damage to plant, 0=no damage to plant)
quantity name: damage to plant, Nasturtium officinale (NAAOF)

* CC(C)C(=O)Oc1c(-c2c(Cl)cccc2C(F)(F)F)c(=O)n(C)c2nccnc12 | 6
* CCn1c(=O)c(-c2c(Cl)ccc(C)c2F)c(OC(=O)C(C)C)c2nccnc21 | 7
* Cn1c(=O)c(-c2c(Cl)ccc(Cl)c2Cl)c(OC(=O)C(C)(C)C)c2nccnc21 | 5
* CC(C)Cn1c(=O)c(-c2ccccc2OC(F)(F)F)c(OC(=O)C(C)(C)C)c2nccnc21 | 1
* CC(C)C(=O)Oc1c(-c2c(F)ccc(F)c2Cl)c(=O)n(CC2CC2)c2nccnc12 | 8
* CC(C)C(=O)Oc1c(-c2ccccc2C(F)(F)F)c(=O)n(C)c2nccnc12 | 6
* CCn1c(=O)c(-c2c(F)ccc(F)c2F)c(OC(=O)C(C)C)c2nccnc21 | 6
* CCn1c(=O)c(-c2ccccc2OC(F)(F)F)c(OC(C)=O)c2nccnc21 | 7
